The values you see were collected from patent US20120149700A1.

# target-of-assay: P2X3 (Homo sapiens, UniProt P56373)
# Sequence (P56373 whole entry): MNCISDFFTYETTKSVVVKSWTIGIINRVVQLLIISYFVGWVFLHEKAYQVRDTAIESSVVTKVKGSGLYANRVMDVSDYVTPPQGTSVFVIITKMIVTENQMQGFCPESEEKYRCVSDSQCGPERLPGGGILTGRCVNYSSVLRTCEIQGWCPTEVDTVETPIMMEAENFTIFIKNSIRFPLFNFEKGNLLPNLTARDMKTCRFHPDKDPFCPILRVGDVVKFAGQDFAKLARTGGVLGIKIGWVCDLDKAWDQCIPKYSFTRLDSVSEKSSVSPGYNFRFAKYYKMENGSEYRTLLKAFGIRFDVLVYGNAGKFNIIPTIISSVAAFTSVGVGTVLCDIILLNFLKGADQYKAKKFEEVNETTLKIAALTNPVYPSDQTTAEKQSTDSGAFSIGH
# assay-info: Calcium uptake assay (P2X antagonist assay, inhibition of agonist-induced calcium influx), P2X3
# assay-context: inhibition of agonist-induced calcium influx in cells expressing the receptor
quantity: IC50 (nM)

// known answers, use as guide
Cc1ccc(N2CCc3ncnc(NCc4ccc(Cl)c(S(C)(=O)=O)c4)c3C2)c(C#N)c1 [Compound 71]    37
N#Cc1cc(Cl)ccc1N1CCc2ncnc(N[C@H](CCO)c3ccc(C(F)F)nc3)c2C1 [Compound 62]    32
Cc1ccc(N2CCc3ncnc(NCc4ccc(C)c(N5CCOCC5)c4)c3C2)c(C#N)c1 [Compound 63]    96
Cc1ccc(N2CCc3ncnc(NCc4ccc(C)c(-n5cncn5)c4)c3C2)c(C#N)c1 [Compound 40]    21
COc1ccc(CNc2ncnc3c2CN(c2ccc(Br)cc2C#N)CC3)cn1 [Compound 14]    78

a. N#Cc1cc(C2CC2)ccc1N1CCc2ncnc(NCc3ccc(C(F)(F)F)nc3)c2C1 [Compound 3]
b. Cc1ccc(N2CCc3ncnc(NCc4ccc5c(c4)OCO5)c3C2)c(C#N)c1 [Compound 82]
c. N#Cc1cc(Cl)ccc1N1CCc2ncnc(NCc3cccc(-n4cnnc4)c3)c2C1 [Compound 51]
d. Cc1ccc(N2CCc3ncnc(NCc4ccc5ccccc5n4)c3C2)c(C#N)c1 [Compound 80]
e. CCc1ccc(CNc2ncnc3c2CN(c2ccc(C)cc2C#N)CC3)cn1 [Compound 33]
Problem: Rank by IC50 (largest to smallest). The labels, placed in the requested order, form the answer.
Result: a, c, d, b, e

----------
The reader will find reported pIC50 values listed item by item below.
# target-of-assay: P2X2/3 (Homo sapiens, UniProt P56373+Q9UBL9)
# Sequence (Q9UBL9 whole entry): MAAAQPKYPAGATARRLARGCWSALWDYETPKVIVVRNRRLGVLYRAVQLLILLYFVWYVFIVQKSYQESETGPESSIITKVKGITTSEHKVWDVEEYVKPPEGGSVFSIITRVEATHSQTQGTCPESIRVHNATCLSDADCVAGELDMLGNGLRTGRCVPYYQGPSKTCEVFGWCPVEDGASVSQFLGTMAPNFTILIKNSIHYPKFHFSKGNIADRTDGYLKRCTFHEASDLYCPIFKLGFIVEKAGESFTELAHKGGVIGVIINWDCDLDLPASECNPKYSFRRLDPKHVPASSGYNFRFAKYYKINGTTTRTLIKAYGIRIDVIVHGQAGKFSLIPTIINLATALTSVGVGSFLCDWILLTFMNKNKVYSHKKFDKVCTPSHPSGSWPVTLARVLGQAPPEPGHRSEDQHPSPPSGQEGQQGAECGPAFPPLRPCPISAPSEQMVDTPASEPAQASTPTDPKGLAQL
# Sequence (P56373 whole entry): as the sequence (P56373 whole entry) above
# assay-info: Calcium uptake assay (P2X antagonist assay, inhibition of agonist-induced calcium influx), P2X2/3
# assay-context: inhibition of agonist-induced calcium influx in cells expressing the receptor
pIC50 here is simply -log10 of the concentration when that concentration is written in mol/L.

N#Cc1cc(Cl)ccc1N1CCc2ncnc(NCc3cccc(-n4cnnc4)c3)c2C1    5.99

We next turn to a different molecule, shown below.
Problem: Jot down pIC50 (P2X2/3 (Homo sapiens, UniProt P56373+Q9UBL9)) of "Cc1ccc(N2CCc3ncnc(NCc4ccc(Cl)nc4)c3C2)c(C#N)c1" .
Result: 7.60

----------
# target-of-assay: P2X2/3 (Homo sapiens, UniProt P56373+Q9UBL9)
# assay-info: Calcium uptake assay (P2X antagonist assay, inhibition of agonist-induced calcium influx), P2X2/3
# assay-context: inhibition of agonist-induced calcium influx in cells expressing the receptor
pIC50: −log10 of the molar value.
quantity: pIC50

a. N#Cc1cc(Cl)ccc1N1CCc2ncnc(N[C@H](CCO)c3ccc(C(F)F)nc3)c2C1
b. N#Cc1ccccc1N1CCc2ncnc(NCc3ccc(C(F)(F)F)nc3)c2C1
Problem: Between the entries labelled a and b , which has a larger pIC50 value on record? Reply with the label of the item you choose.
Result: a
(a: 6.56, b: 5.74)

1. COc1ccc(CNc2ncnc3c2CN(c2ccc(Br)cc2C#N)CC3)cn1
2. CSc1cc(CNc2ncnc3c2CN(c2ccc(C)cc2C#N)CC3)ccc1C
3. Cc1ccc(N2CCc3ncnc(NCc4ccccn4)c3C2)c(C#N)c1
Problem: Rank by pIC50 (largest to smallest). The labels, placed in the requested order, form the answer.
Result: 1, 2, 3
